Parameter pest or weed control at 35 g/ha: see the listing below.
System: Key Broadleaf Weed and Crop Species
Assay: Post-emergent Test II herbicidal activity (Table 15)
Format: in vivo
Details: Euphorbia heterophylla, post-emergence, 336 h, wild poinsettia (Euphorbia heterophylla), 35 g ai/ha, 14 d, read-out: Visual Growth Reduction (%) 14 Days After Application, EPHHL

Nc1c(F)c(-c2ccc3cc[nH]c3c2)nc(C(=O)O)c1Cl [Compound 1.09] : 85 to 94%
COC(=O)c1nc(-c2ccc3cc[nH]c3c2F)nc(N)c1Cl [Compound 1.31] : 95 to 100%
COC(=O)c1nc(-c2ccc(Cl)c3[nH]ccc23)c(F)c(N)c1Cl [Compound 1.43] : 0 to 29%
COC(=O)c1nc(-c2ccc3sccc3c2)nc(N)c1OC [Compound 3.08] : 60 to 74%
Nc1c(F)c(-c2ccc3cn[nH]c3c2)nc(C(=O)O)c1Cl [Compound 4.06] : 45 to 59%
COc1c(N)nc(-c2ccc(Cl)c3occc23)nc1C(=O)O [Compound 2.22] : 0 to 29%
COC(=O)c1nc(-c2ccc3cc[nH]c3c2F)c(Cl)c(N)c1Cl [Compound 1.07] : 60 to 74%
COc1c(N)nc(-c2ccc3cc[nH]c3c2)nc1C(=O)O [Compound 1.33] : 45 to 59%

Next compound, please.
Item Cc1c(-c2ccc3sccc3c2)nc(C(=O)O)c(Cl)c1N [Compound 3.07] has what recorded pest or weed control at 35 g/ha?
0 to 29%

---

observable: melting point

Consider the reported melting point for these compounds:
COC(=O)c1nc(-c2cccc3cc[nH]c23)c(F)c(N)c1Cl : 96 to 100 °C
COC(=O)c1nc(-c2ccc3cc[nH]c3c2)c(F)c(N)c1Cl : 66 to 69 °C
COC(=O)c1nc(-c2ccc3sccc3c2)nc(N)c1OC : 125 to 127 °C
COC(=O)c1nc(-c2cccc3c2ccn3C)c(F)c(N)c1Cl : 167 to 169 °C
COc1c(N)nc(-c2ccc(Cl)c3occc23)nc1C(=O)O : 204 to 206 °C

Give its melting point value. Item: COc1c(N)nc(-c2ccc3ccsc3c2)nc1C(=O)O
134 to 136 °C

Find the recorded melting point belonging to Nc1nc(-c2ccc(Cl)c3occc23)nc(C(=O)O)c1Cl and report it.
173 to 174.5 °C

Could you share which melting point value was measured for Nc1c(F)c(-c2ccc3sccc3c2)nc(C(=O)O)c1Cl ?
149 to 150 °C

Which value of melting point has been reported for Nc1c(F)c(-c2ccc3cc[nH]c3c2)nc(C(=O)O)c1Cl in the records?
138 to 140 °C

// returns reported melting point for input COC(=O)c1nc(-c2cc3ccoc3cc2F)nc(N)c1OC
160 °C

If you can, please state the reported melting point value of COC(=O)c1nc(-c2ccc3[nH]ncc3c2)c(F)c(N)c1Cl .
188 to 190 °C

Which melting point value is on record for Cc1c(-c2ccc3cc[nH]c3c2)nc(C(=O)O)c(Cl)c1N ?
168 to 175 °C

Name the reported melting point value associated with the compound COC(=O)c1nc(-c2cccc3sccc23)c(F)c(N)c1Cl
219 to 221 °C

I'd like to know its melting point. The compound in question is COC(=O)c1nc(-c2ccc(Cl)c3[nH]ccc23)nc(N)c1OC
226 °C

What does the record list as melting point for Cn1cnc2ccc(-c3nc(C(=O)O)c(Cl)c(N)c3F)cc21 ?
230 to 235 °C (dec.)

melting point for COC(=O)c1nc(-c2ccc3c(ccn3C)c2)c(F)c(N)c1Cl ?
125 to 127 °C

Record request: melting point value, item Nc1c(F)c(-c2ccc3ccsc3c2)nc(C(=O)O)c1Cl
165 to 167 °C

What measured melting point goes with Cc1c(-c2ccc3ccsc3c2)nc(C(=O)O)c(Cl)c1N ?
157 to 162 °C

Which value of melting point has been reported for Nc1c(F)c(-c2ccc3scnc3c2)nc(C(=O)O)c1Cl in the records?
186 to 187 °C

---

Test system: Key Broadleaf Weed and Crop Species
Test: Post-emergent Test II herbicidal activity (Table 15)
Format: in vivo
Details: Abutilon theophrasti, post-emergence, 336 h, velvetleaf (Abutilon theophrasti), 70 g ai/ha, 14 d, read-out: Visual Growth Reduction (%) 14 Days After Application, ABUTH
Property: pest or weed control at 70 g/ha; scope: individual molecules

Examples with their reported pest or weed control at 70 g/ha follow.
COC(=O)c1nc(-c2cccc3occc23)c(F)c(N)c1Cl : 75 to 84%
COC(=O)c1nc(-c2ccc3sccc3c2)c(C)c(N)c1Cl : 60 to 74%

Field request: pest or weed control at 70 g/ha | item: Cc1c(-c2ccc3sccc3c2)nc(C(=O)O)c(Cl)c1N
0 to 29%

What value of pest or weed control at 70 g/ha has been reported for the following molecule? COC(=O)c1nc(-c2ccc3ocnc3c2)c(F)c(N)c1Cl
60 to 74%

---

The following molecules are listed with their measured GR80, VIOTR values.
System: Wheat and Barley and test plant species
Experiment: Post-emergent Test III, herbicidal activity in wheat and barley (Table 17; visual injury, GR20/GR50/GR80/GR90)
Type: in vivo
Details: VIOTR; dose for 80 percent growth reduction; probit analysis; 21 d
Quick reminder: number only, in g ai/ha, skip the unit.

COC(=O)c1nc(-c2ccc(Cl)c3ccoc23)c(F)c(N)c1Cl [Compound 2.24] : 78

Fill blank: measured GR80, VIOTR of the molecule COC(=O)c1nc(-c2ccc3cc[nH]c3c2F)cc(N)c1Cl [Compound 1.23] is ____.
119

Which GR80, VIOTR is reported for this molecule? Nc1c(F)c(-c2ccc3cc[nH]c3c2F)nc(C(=O)O)c1Cl [Compound 1.16]
56

Which GR80, VIOTR is reported for this molecule? COC(=O)c1nc(-c2ccc3cc[nH]c3c2F)c(F)c(N)c1Cl [Compound 1.15]
63

---

System: Key Broadleaf Weed and Crop Species
Test: Post-emergent Test II herbicidal activity (Table 15)
Assay type: in vivo
Conditions: Chenopodium album, post-emergence, 336 h, lambsquarters (Chenopodium album), 140 g ai/ha, 14 d, read-out: Visual Growth Reduction (%) 14 Days After Application, CHEAL
# reported pest or weed control at 140 g/ha; entries follow

Nc1c(F)c(-c2ccc(Cl)c3occc23)nc(C(=O)O)c1Cl [Compound 2.18] : 85 to 94%
Nc1c(F)c(-c2cccc3occc23)nc(C(=O)O)c1Cl [Compound 2.17] : 95 to 100%
COC(=O)c1nc(-c2ccc3cc[nH]c3c2F)c(F)c(N)c1OC [Compound 1.20] : 95 to 100%
Nc1c(F)c(-c2ccc3[nH]ccc3c2)nc(C(=O)O)c1Cl [Compound 1.04] : 60 to 74%
COC(=O)c1nc(-c2ccc(Cl)c3ccoc23)nc(N)c1OC [Compound 2.26] : 95 to 100%

// lookup pest or weed control at 140 g/ha for Nc1c(Cl)c(C(=O)O)nc(-c2ccc3sccc3c2)c1Cl [Compound 3.02]
85 to 94%

What pest or weed control at 140 g/ha value was documented for this molecule, COC(=O)c1nc(-c2ccc3ccn(C)c3c2)c(F)c(N)c1Cl [Compound 1.10] ?
95 to 100%

Return reported pest or weed control at 140 g/ha; argument: COC(=O)c1nc(-c2ccc(Cl)c3[nH]ccc23)cc(N)c1Cl [Compound 1.44]
95 to 100%

May I ask what pest or weed control at 140 g/ha has been recorded for COc1c(N)nc(-c2ccc3sccc3c2)nc1C(=O)O [Compound 3.09] ?
95 to 100%

---

Listing of recorded pest or weed control at 70 g/ha by entry.
Tested on: Key Broadleaf Weed and Crop Species
Test: Post-emergent Test II herbicidal activity (Table 15)
Type: in vivo
Details: Brassica napus, post-emergence, 336 h, oilseed rape, canola (Brassica napus), 70 g ai/ha, 14 d, read-out: Visual Growth Reduction (%) 14 Days After Application, BRSNN

// solved cases for pest or weed control at 70 g/ha follow
COC(=O)c1nc(-c2ccc3sccc3c2)c(F)c(N)c1Cl : 60 to 74%
COC(=O)c1nc(-c2ccc3cc[nH]c3c2F)nc(N)c1Cl : 95 to 100%
COC(=O)c1nc(-c2ccc3ocnc3c2)c(F)c(N)c1Cl : 95 to 100%
COC(=O)c1nc(-c2ccc3cc[nH]c3c2)cc(N)c1Cl : 0 to 29%

pest or weed control at 70 g/ha lookup needed for COC(=O)c1nc(-c2cc3ccoc3cc2F)cc(N)c1Cl , thanks.
0 to 29%

Sample COC(=O)c1nc(-c2cc3[nH]ccc3cc2F)cc(N)c1Cl — what was its pest or weed control at 70 g/ha?
75 to 84%

All figures here come from patent US20170050957A1.
